# key: entry, value: koff
Biological target: T1, human IL-13 (recombinant E. coli-expressed) (human, UniProt P35225 35-146)
T1 construct: also called hIL-13
T1 sequence (P35225 other isoform, or with tags, fused parts or gaps limits assumed): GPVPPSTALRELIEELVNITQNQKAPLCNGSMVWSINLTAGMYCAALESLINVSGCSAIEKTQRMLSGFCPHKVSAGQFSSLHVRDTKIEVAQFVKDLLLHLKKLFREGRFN
Test: Biacore T100 SPR, purified mAb captured on anti-human IgG, IL13 analyte, 1:1 fit
Give just the numeric value; s⁻¹ need not be written.

Recorded koff, per entry:
[
  {
    "BINDER": "A1Y100B ValL1 (antibody, human IgG1, kappa, V domains shown, CDRH3 variant of A1L1; also called A1Y100BVAL1; 829 (mAb)) VH: QVQLVQSGAEVKKPGSSVKVSCKASGFYIKDTYMHWVRQAPGQGLEWMGTIDPANGNTKYVPKFQGRVTITADESTSTAYMELSSLRSEDTAVYYCARSIYDDYHVDDYYAMDYWGQGTLVTVSS VL: DIVMTQSPLSLPVTPGEPASISCRSSQNIVHINGNTYLEWYLQKPGQSPRLLIYKISDRFSGVPDRFSGSGSGTDFTLKISRVEADDVGIYYCFQGSHVPWTFGQGTKLEIKR",
    "VALUE UNIT": "s⁻¹",
    "koff": "2.12e-05"
  },
  {
    "BINDER": "A1Y100B AlaL1 (antibody, human IgG1, kappa, V domains shown, CDRH3 variant of A1L1) VH: QVQLVQSGAEVKKPGSSVKVSCKASGFYIKDTYMHWVRQAPGQGLEWMGTIDPANGNTKYVPKFQGRVTITADESTSTAYMELSSLRSEDTAVYYCARSIYDDYHADDYYAMDYWGQGTLVTVSS VL: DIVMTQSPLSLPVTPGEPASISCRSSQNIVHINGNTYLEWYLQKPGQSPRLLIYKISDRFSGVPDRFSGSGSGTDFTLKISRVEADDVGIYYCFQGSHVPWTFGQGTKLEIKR",
    "VALUE UNIT": "s⁻¹",
    "koff": "2.58e-05"
  },
  {
    "BINDER": "A1Y100B IleL1 (antibody, human IgG1, kappa, V domains shown, CDRH3 variant of A1L1) VH: QVQLVQSGAEVKKPGSSVKVSCKASGFYIKDTYMHWVRQAPGQGLEWMGTIDPANGNTKYVPKFQGRVTITADESTSTAYMELSSLRSEDTAVYYCARSIYDDYHIDDYYAMDYWGQGTLVTVSS VL: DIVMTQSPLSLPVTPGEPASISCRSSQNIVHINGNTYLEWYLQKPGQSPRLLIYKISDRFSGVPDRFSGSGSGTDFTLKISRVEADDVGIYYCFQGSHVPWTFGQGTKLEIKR",
    "VALUE UNIT": "s⁻¹",
    "koff": "4.21e-05"
  },
  {
    "BINDER": "A1L1 (antibody, human IgG1, kappa, V domains shown, Humanised version of murine 6A1, human IgG1 kappa; also called parental; 586 (mAb)) VH: QVQLVQSGAEVKKPGSSVKVSCKASGFYIKDTYMHWVRQAPGQGLEWMGTIDPANGNTKYVPKFQGRVTITADESTSTAYMELSSLRSEDTAVYYCARSIYDDYHYDDYYAMDYWGQGTLVTVSS VL: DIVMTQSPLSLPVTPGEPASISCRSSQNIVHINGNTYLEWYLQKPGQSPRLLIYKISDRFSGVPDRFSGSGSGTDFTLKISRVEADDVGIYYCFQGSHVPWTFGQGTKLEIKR",
    "VALUE UNIT": "s⁻¹",
    "koff": 0.000368
  }
]

Now let's try a different one.
get_value(item= A1Y100B TrpL1 (antibody, human IgG1, kappa, V domains shown, CDRH3 variant of A1L1) VH: QVQLVQSGAEVKKPGSSVKVSCKASGFYIKDTYMHWVRQAPGQGLEWMGTIDPANGNTKYVPKFQGRVTITADESTSTAYMELSSLRSEDTAVYYCARSIYDDYHWDDYYAMDYWGQGTLVTVSS VL: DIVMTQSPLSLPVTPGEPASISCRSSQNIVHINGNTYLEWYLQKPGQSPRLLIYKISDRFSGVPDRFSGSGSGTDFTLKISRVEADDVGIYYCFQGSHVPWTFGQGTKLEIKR , readout=koff) returns 0.000125

Reference for the values: patent US20120082682A1
